Reference source: ChEMBL document CHEMBL1909046

Task for the reader: assign each of the following compounds its reported pIC50.
SUBJECT_OF_TEST: Mitogen-activated protein kinase 14 (Homo sapiens)
Sequence (Q16539 whole entry): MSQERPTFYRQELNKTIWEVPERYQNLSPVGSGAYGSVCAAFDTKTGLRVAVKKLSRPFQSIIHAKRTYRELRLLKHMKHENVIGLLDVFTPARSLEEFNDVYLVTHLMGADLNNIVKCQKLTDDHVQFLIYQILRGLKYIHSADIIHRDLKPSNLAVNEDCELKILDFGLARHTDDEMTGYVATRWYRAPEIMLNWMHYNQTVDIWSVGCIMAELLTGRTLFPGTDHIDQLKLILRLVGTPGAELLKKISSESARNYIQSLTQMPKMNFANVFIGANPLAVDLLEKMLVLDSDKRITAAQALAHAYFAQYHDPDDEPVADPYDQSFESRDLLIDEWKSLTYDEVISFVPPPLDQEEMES
Design: species or system Escherichia coli
CONDITION_SET: read-out: IC50;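 further: inhibition of p38alpha enzyme activity in a biochemical kinase assay, with myelin basic protein serving as substrate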
Give bare numbers, as −log10 of the molar value.

[
  {
    "COMPOUND": "O=C(c1ccccc1Cl)N1CCC(Cc2ccccc2)CC1",
    "SUBJECT_OF_TEST": "Mitogen-activated protein kinase 14 (Homo sapiens)",
    "pIC50": 6.08
  },
  {
    "COMPOUND": "CCc1oc2ccccc2c1C(=O)c1cc(Br)c(O)c(Br)c1 [BENZBROMARONE]",
    "SUBJECT_OF_TEST": "Mitogen-activated protein kinase 14 (Homo sapiens)",
    "pIC50": 5.91
  },
  {
    "COMPOUND": "C[C@@H]1C[C@H]2[C@@H]3CCC4=CC(=O)C=C[C@]4(C)C3=CC[C@]2(C)[C@H]1C(=O)CN1CCN(c2cc(N3CCCC3)nc(N3CCCC3)n2)CC1 [TIRILAZAD]",
    "SUBJECT_OF_TEST": "Mitogen-activated protein kinase 14 (Homo sapiens)",
    "pIC50": 5.13
  }
]

// switching to the query compound
Entry under test: COc1cc(C(=O)NS(=O)(=O)c2ccccc2C)ccc1Cc1cn(C)c2ccc(NC(=O)OC3CCCC3)cc12 [ZAFIRLUKAST] . Its pIC50 was 6.45
